Target: T1, marmoset monkey IL4Rα-his protein (marmoset monkey)
T1 construct: Custom made by Sino biological; no cleavage site stated; also called cal-IL4Rα-his; Cal-IL4Rα
T1 chain: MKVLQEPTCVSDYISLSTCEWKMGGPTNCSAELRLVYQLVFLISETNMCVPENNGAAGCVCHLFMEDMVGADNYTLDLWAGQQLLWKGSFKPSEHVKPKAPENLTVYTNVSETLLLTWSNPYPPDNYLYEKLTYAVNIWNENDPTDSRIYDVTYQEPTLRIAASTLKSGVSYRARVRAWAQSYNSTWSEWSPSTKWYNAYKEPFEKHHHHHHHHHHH
Test: indirect ELISA, coated cal-IL4Rα-his
Property: EC50
Write the numeric value and follow it with the unit.

Answered examples (4):
chimeric antibody C2C1A1A1 (antibody, human IgG4 S228P, kappa, V domains shown, Mouse variable domains on human IgG4/kappa; also called Chimeric C2C1A1A1; chC2C1A1A1) VH: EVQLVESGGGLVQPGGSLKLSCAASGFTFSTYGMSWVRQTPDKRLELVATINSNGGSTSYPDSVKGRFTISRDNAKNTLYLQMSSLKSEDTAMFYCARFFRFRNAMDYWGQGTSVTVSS VL: DIQMTQSPASLSASVGETVTITCRTSENIYSYLAWYQQKQGKSPQFLVYNAKTLAEGVPSRFSGSGSGTQFSLNINSLQSEDFGSYYCQHYYGPPTWTFGGGTKLEIKR :: 0.62 nM
huC2C1A1A1-V14 (antibody, human IgG4 S228P, kappa, V domains shown, Humanized, human IgG4/kappa) VH: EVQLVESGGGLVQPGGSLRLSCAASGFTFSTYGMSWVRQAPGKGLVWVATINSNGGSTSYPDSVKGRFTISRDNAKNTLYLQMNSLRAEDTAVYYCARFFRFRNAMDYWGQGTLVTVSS VL: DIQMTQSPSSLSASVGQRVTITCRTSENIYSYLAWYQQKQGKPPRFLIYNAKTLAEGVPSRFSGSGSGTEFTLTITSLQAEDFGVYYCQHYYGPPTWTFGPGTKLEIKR :: 0.55 nM
huC2C1A1A1-V15 (antibody, human IgG4, V domains shown, Humanized, human IgG4/kappa) VH: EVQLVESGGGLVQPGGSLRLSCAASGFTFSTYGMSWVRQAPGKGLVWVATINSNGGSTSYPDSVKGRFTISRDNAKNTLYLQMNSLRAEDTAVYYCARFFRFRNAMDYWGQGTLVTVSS VL: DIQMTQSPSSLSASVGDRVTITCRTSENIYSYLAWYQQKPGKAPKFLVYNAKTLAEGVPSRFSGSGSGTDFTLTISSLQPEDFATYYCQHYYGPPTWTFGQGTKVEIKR :: 0.41 nM
mouse antibody B8G11F2B7G5E8 (antibody, V domains shown, Mouse hybridoma mAb; also called Mouse B8G11F2B7G5E8; mAb B8G11F2B7G5E8) VH: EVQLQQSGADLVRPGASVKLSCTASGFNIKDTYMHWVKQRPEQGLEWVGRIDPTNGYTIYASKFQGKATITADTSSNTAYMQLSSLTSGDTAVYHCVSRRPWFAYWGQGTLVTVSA VL: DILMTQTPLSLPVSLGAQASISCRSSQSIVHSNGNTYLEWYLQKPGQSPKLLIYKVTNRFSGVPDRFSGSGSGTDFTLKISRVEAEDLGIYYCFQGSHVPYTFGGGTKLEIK :: 0.87 nM

Consider the record given below.
Lookup: Which EC50 is listed for chimeric antibody B8G11F2B7G5E8 (antibody, human IgG4 S228P, kappa, V domains shown, Mouse variable domains on human IgG4/kappa; also called Chimeric B8G11F2B7G5E8; chB8G11F2B7G5E8) VH: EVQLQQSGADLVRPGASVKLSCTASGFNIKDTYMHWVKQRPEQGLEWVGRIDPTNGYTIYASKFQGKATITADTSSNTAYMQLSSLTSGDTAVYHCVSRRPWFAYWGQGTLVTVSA VL: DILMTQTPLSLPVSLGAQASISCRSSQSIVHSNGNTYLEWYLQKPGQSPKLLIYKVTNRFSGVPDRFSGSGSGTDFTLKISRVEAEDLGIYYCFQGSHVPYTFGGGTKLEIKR ?
Found: 1.01 nM
